test system: rabbit skeletal myofibrils (approximately 90% fast fibers); test: Activation of fast skeletal myofibrils (PUMA coupled-enzyme ATPase assay at pCa25); format: biochemical; settings: concentration at which the compound increased the enzymatic activity by 40%; calcium at pCa25; PM12 buffer pH 6.8
readout: Mean AC1.4

Sample records with Mean AC1.4:
# compound, Mean AC1.4
rows = [
    ("Clc1cccnc1C1(CNc2ncccn2)CCC1", "D (D=>20 uM)"),
    ("COc1nc(NC[C@]2(c3ncccc3F)C[C@@H](F)C2)ncc1-c1ccccc1", "B (B=1-10 uM)"),
    ("O=C(Nc1ccccc1)c1cnc(NCC2(c3ncccc3F)CCC2)nc1", "C (C=10-20 uM)"),
    ("CC(C)(CNc1ncc2c(n1)CCN(S(C)(=O)=O)C2)c1ccc(F)cc1", "B (B=1-10 uM)"),
]

## Input Please respond with reported Mean AC1.4 (system rabbit skeletal myofibrils (approximately 90% fast fibers)) for CC(C)(Nc1ncc(-c2cccc(C(N)=O)n2)cn1)c1ncccc1Cl .
## Output C (C=10-20 uM)

## Input Tell me Mean AC1.4 of CSc1cccnc1C(C)(C)Nc1ncc(-c2cccc(C#N)c2)cn1 when tested on rabbit skeletal myofibrils (approximately 90% fast fibers).
## Output B (B=1-10 uM)

## Input Supply Mean AC1.4 measured with rabbit skeletal myofibrils (approximately 90% fast fibers) for CC(C)(Nc1nccc(-c2nccs2)n1)c1cccc(OC(F)F)n1 .
## Output C (C=10-20 uM)

## Input Give Mean AC1.4 for CC(C)(Nc1ncc(-c2ccnc(C(N)=O)c2)cn1)c1ncccc1Cl tested on rabbit skeletal myofibrils (approximately 90% fast fibers).
## Output B (B=1-10 uM)

## Input Jot down Mean AC1.4 (rabbit skeletal myofibrils (approximately 90% fast fibers)) of CC(=O)N1CC(NC(=O)c2ccc(F)c(-c3cnc(NC[C@]4(c5ncccc5F)C[C@H](F)C4)nc3)c2)C1 .
## Output B (B=1-10 uM)

## Input Fill in Mean AC1.4 for N#Cc1ccnc(-c2cnc(NC[C@]3(c4ncccc4F)C[C@H](F)C3)nc2)c1 tested with rabbit skeletal myofibrils (approximately 90% fast fibers).
## Output B (B=1-10 uM)

## Input Look up and report measured Mean AC1.4 (rabbit skeletal myofibrils (approximately 90% fast fibers)) for the following compound: CC(C)(CNc1ncc2c(n1)CN(S(C)(=O)=O)CC2)c1ccc(F)cc1
## Output C (C=10-20 uM)

## Input Answer with Mean AC1.4 of CC(C)(Nc1ncc(-c2nc(CN)cs2)cn1)c1ncccc1F measured for rabbit skeletal myofibrils (approximately 90% fast fibers).
## Output D (D=>20 uM)
